# assay remarks: NCI Yeast Anticancer Drug Screen. Data for the cln2 rad14 strain (AID 165);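 also: 0% = growth equal to vehicle treated cultures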
# recorded conditions: S. cerevisiae cln2 rad14 strain, at 50.0 µM, active compounds read high
About 79,000 compounds went through this panel and 15% of them were active in at least one assay; those are over-represented in the sample as a whole.
readout name: growth inhibition (%)
Give the number; % is assumed, so skip it.

# input Param item = `c1ccc2cc(C3OCCCO3)ccc2c1` ; retrieve measured growth inhibition.
# output -62.9

# input Param item = `CCc1ccccc1NC(=O)Sc1cccc(C)c1` ; retrieve measured growth inhibition.
# output -12.9

# input Param item = O=C1CC2C3CC(Br)C4C3CC2C14 (configuration not stated) ; retrieve measured growth inhibition.
# output 6.5

# input Param item = `Cc1cccc(I)c1` ; retrieve measured growth inhibition.
# output -2.1

# input Param item = `CCC(=O)OCC[N+](C)(C)C` ; retrieve measured growth inhibition.
# output -4.25

# input Param item = CCCCCCCCCCCCCCCC(=O)OCC1OC(n2cc(F)c(=O)[nH]c2=O)C(NC(=O)N(CCCl)N=O)C(O)C1O (configuration not stated) ; retrieve measured growth inhibition.
# output -2.1

# input Param item = `Nc1ncnc2c1S(=O)(=O)NCN2` ; retrieve measured growth inhibition.
# output -17.3

====

Please go through the items and note down their growth inhibition.
# assay remarks: NCI Yeast Anticancer Drug Screen. Data for the rad50 strain (AID 155);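 also: 0% = growth of vehicle-only cultures of the same strain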
# recorded conditions: S. cerevisiae rad50 strain growth inhibition; at 50.0 µM; active compounds read high
About 79,000 compounds went through this panel and 15% of them were active in at least one assay; those are over-represented in the sample as a whole.
Give the number; % is assumed, so skip it.

# input Param item = `Cc1nc(C)c(Cc2ccccc2)o1` ; retrieve measured growth inhibition.
# output 1.05

# input Param item = C#CCOCC12C=CC(O1)C1C(=O)OCC12 (stereo not given) ; retrieve measured growth inhibition.
# output -9.45

# input Param item = `O=c1ccc2cc(Br)ccc2o1` ; retrieve measured growth inhibition.
# output 6.65

# input Param item = O=C(NCc1ccccc1)C1C2CCC(C2)C1C(=O)NCc1ccccc1 (stereo not given) ; retrieve measured growth inhibition.
# output -0.85

# input Param item = `COCCN1CC(=O)N2Cc3ccccc3CN2C(=O)C1` ; retrieve measured growth inhibition.
# output -4.6

====

Please go through the items and note down their growth inhibition.
# assay remarks: NCI Yeast Anticancer Drug Screen. Data for the sgs1 mgt1 strain (AID 161);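 also: 0% = growth of cultures given vehicle only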
# recorded conditions: S. cerevisiae sgs1 mgt1 strain, at 50.0 µM, active compounds read high
About 79,000 compounds went through this panel and 15% of them were active in at least one assay; those are over-represented in the sample as a whole.
Give the number; % is assumed, so skip it.

# input Param item = `CCOC(=O)NCC1(c2ccccc2)CCN(Cc2ccccc2)CC1` ; retrieve measured growth inhibition.
# output -11.9

# input Param item = `CC(=O)n1cc2cc([N+](=O)[O-])ccc2n1` ; retrieve measured growth inhibition.
# output -1.15

# input Param item = `CCOC(=O)c1ccc(N(CC(=O)O)S(=O)(=O)c2ccc(C)cc2)s1` ; retrieve measured growth inhibition.
# output 2.5

# input Param item = C/C=C(/C)C1(O)CCCCC1O (stereo not given) ; retrieve measured growth inhibition.
# output 1.2

# input Param item = `CN(C)C(=S)OCC(C)(C)C` ; retrieve measured growth inhibition.
# output -18.3

# input Param item = `CCOCC1OCCCO1` ; retrieve measured growth inhibition.
# output 1.6

# input Param item = `ClC(Cl)(Cl)C(c1ccc(Br)cc1)c1ccc(Br)cc1` ; retrieve measured growth inhibition.
# output 1.15

# input Param item = CCNC1C2(CCCCC2)NC(=O)C12CCCCC2 (stereo not given) ; retrieve measured growth inhibition.
# output -1.1

# input Param item = CN(C)c1ncnc2c1ncn2CC(O)CN (stereo not given) ; retrieve measured growth inhibition.
# output -15.8

# input Param item = `Cc1cc(N(C)C)c([N+](=O)[O-])cc1C=O` ; retrieve measured growth inhibition.
# output -13.3

FYI, the data here is from PubChem BioAssay (NCI).
